- Tested on: mouse liver microsomes without NADPH, percent remaining
- measurement-notes: High Content Assay for Compounds that inhibit the Assembly of the Perinucleolar Compartment: Mouse Liver Microsome Stability without NADPH
- applied-conditions: hits give low values
measured-attribute: percent remaining (%)
Give the value in % but do not write % after it.

Challenge: percent remaining of N=c1c2c(-c3ccccc3)c(-c3ccccc3)n(Cc3ccccc3)c2ncn1C1CCC(O)CC1 (stereo unspecified) on mouse liver microsomes without NADPH, percent remaining?
Response given: 106

This collection of values is drawn from PubChem BioAssay AID602444.
